Experiment: basal MM1S mitochondrial membrane potential changes, profiling panel, cell-based, JC-1 fluorescence, 24 h, 100 nL compound (AID 1170); note: test concentration not given here
Settings: higher = more signal
Param threshold (-1) applies to z-score; output 1 when value >= threshold, 0 when value < threshold.

[
  {
    "COMPOUND": "COCCCN1C(=O)[C@@]2(Cc3ccccc31)c1ccccc1C(=O)N(Cc1ccccc1OC)[C@H]2c1ccc(CO)cc1",
    "GROUP LABEL": 1
  },
  {
    "COMPOUND": "CC(C)C[C@@H]1NC(=O)[C@H]2C[C@@H](C(=O)NCCCCCCNC(=O)CS)[C@@H](c3ccc(O)cc3)N2C1=O",
    "GROUP LABEL": 1
  },
  {
    "COMPOUND": "C=C(/C(=C/C[C@@H](OC(C)=O)c1ccccc1OCCO)c1cc(C(=O)OC)ccc1OC)C(C)C",
    "GROUP LABEL": 1
  },
  {
    "COMPOUND": "COCCOC(=O)N1C(=O)[C@@]2(c3cc(C#CC4(O)CCCCCC4)ccc31)[C@H](c1ccc(OCCO)cc1)N1[C@H](c3ccccc3)[C@H](c3ccccc3)OC(=O)[C@H]1[C@@H]2C(N)=O",
    "GROUP LABEL": 0
  },
  {
    "COMPOUND": "CC(C)CNC(=O)[C@@]1(C)c2ccccc2C(=O)N(Cc2cc(F)cc(C(F)(F)F)c2)[C@H]1c1ccc(CO)cc1",
    "GROUP LABEL": 1
  },
  {
    "COMPOUND": "N#Cc1ccc(C(O)C2C=CC3C(=O)NC(=O)C3N2Nc2ccccn2)cc1 (stereo not given)",
    "GROUP LABEL": 1
  },
  {
    "COMPOUND": "C#CCN(C/C=C/c1ccccc1)[C@H](CO[Si](C)(C)C(C)(C)C)c1ccccc1",
    "GROUP LABEL": 1
  },
  {
    "COMPOUND": "CC(C)C(=C=CC[C@@H](O)c1cccc(OCCO)c1)CCO",
    "GROUP LABEL": 0
  },
  {
    "COMPOUND": "O=C1N(CCS(=O)(=O)c2ccccc2)c2ccccc2[C@@H]2OC(c3ccc(OCCCO)cc3)=N[C@]12CCS(=O)(=O)c1ccccc1",
    "GROUP LABEL": 1
  },
  {
    "COMPOUND": "C=CCNC(=O)[C@H]1[C@@H]2C(=O)O[C@@H](c3ccccc3)[C@@H](c3ccccc3)N2[C@@H](c2ccccc2OCCO)[C@]12C(=O)N(C(=O)OCCOC)c1ccccc12",
    "GROUP LABEL": 0
  },
  {
    "COMPOUND": "CCOC(=O)C[C@H]1[C@H](OC(=O)Cc2ccc3c(c2)OCO3)[C@@H](NC(=O)c2ccccc2)c2cc(OCCCO)ccc2N1C(=O)Cc1ccc(OC)cc1",
    "GROUP LABEL": 1
  },
  {
    "COMPOUND": "COc1ccc([Si](C)(C)[C@H]2[C@H](CCO)O[C@@]3(C(=O)N(Cc4ccc(N5CCOC5=O)cc4)c4ccccc43)[C@@H]2C)cc1",
    "GROUP LABEL": 0
  },
  {
    "COMPOUND": "CCc1cccc(NC(=O)O[C@H]2[C@H](OC(=O)Nc3ccc4c(c3)OCO4)[C@H](OC(=O)Nc3ccc4c(c3)OCO4)[C@@H](OC)O[C@@H]2CO)c1",
    "GROUP LABEL": 0
  },
  {
    "COMPOUND": "COc1cc(OC)c(C(O)C2C=CC3C(=O)N(c4ccccc4)C(=O)C3N2Nc2ccccc2F)cc1Br (stereo not given)",
    "GROUP LABEL": 1
  },
  {
    "COMPOUND": "COC(=O)[C@@]1(Cc2ccccc2CN=[N+]=[N-])COC(c2ccc(OCCCO)cc2)=N1",
    "GROUP LABEL": 1
  }
]
